# Test system: PC-3
# assay.info: Antiproliferative activity against human PC3 cells by MTT assay
# Type: functional, cell-based
pIC50: −log10 of the molar value.
Provide the recorded pIC50 for the entries that follow.

In the examples that follow, each entry is paired with its recorded pIC50.
| smiles.entry | pIC50 |
| --- | --- |
| COc1ccc(CNc2nc(Cl)nc3c2ncn3[C@@H]2CC[C@H]3[C@@H]4CC[C@H]5NC(=O)CC[C@]5(C)[C@H]4CC[C@]3(C)O2)cc1 | < 4.00 |
| C[C@]12CCC(=O)N[C@@H]1CC[C@@H]1[C@@H]2CC[C@]2(C)O[C@H](n3cnc4c(NCCO)nc(Cl)nc43)CC[C@@H]12 | < 4.00 |
| CN(C)c1ncnc2c1ncn2[C@@H]1CC[C@H]2[C@@H]3CC[C@H]4NC(=O)CC[C@]4(C)[C@H]3CC[C@]2(C)O1 | < 4.00 |
| C[C@]12CCC(=O)N[C@@H]1CC[C@@H]1[C@@H]2CC[C@]2(C)O[C@H](n3cnc4c(NCc5ccccc5)nc(Cl)nc43)CC[C@@H]12 | 4.75 |
| Cc1ccc(CNc2nc(Cl)nc3c2ncn3[C@@H]2CC[C@H]3[C@@H]4CC[C@H]5NC(=O)CC[C@]5(C)[C@H]4CC[C@]3(C)O2)cc1 | 4.58 |

For the next question, use this compound.
Exercise: // pIC50 lookup, key: C[C@]12CCC(=O)N[C@@H]1CC[C@@H]1[C@@H]2CC[C@]2(C)O[C@H](n3cnc4c(N(CCO)CCO)ncnc43)CC[C@@H]12
Key: < 4.00

----------
# Test system: PC-3
# assay.info: Antiproliferative activity against human PC3 cells by MTT assay
# Format: functional, cell-based
Exercise: state measured IC50 for each of the molecules provided.

| smiles.entry | IC50 |
| --- | --- |
| C[C@]12CCC(=O)N[C@@H]1CC[C@@H]1[C@@H]2CC[C@]2(C)O[C@H](n3cnc4c(NCCN)ncnc43)CC[C@@H]12 | > 100 µM |
| CCN(CC)c1ncnc2c1ncn2[C@@H]1CC[C@H]2[C@@H]3CC[C@H]4NC(=O)CC[C@]4(C)[C@H]3CC[C@]2(C)O1 | > 100 µM |

Hello, I would appreciate it if you could give IC50 for each entry below.
1. C[C@]12CCC(=O)N[C@@H]1CC[C@@H]1[C@@H]2CC[C@]2(C)O[C@H](n3cnc4c(N(CCO)CCO)nc(Cl)nc43)CC[C@@H]12
2. C[C@]12CCC(=O)N[C@@H]1CC[C@@H]1[C@@H]2CC[C@]2(C)O[C@H](n3cnc4c(NCc5ccc(F)cc5)nc(Cl)nc43)CC[C@@H]12

Key:
["> 100 µM", "> 100 µM"]

Exercise: Find the recorded IC50 belonging to CN(C)c1nc(Cl)nc2c1ncn2[C@@H]1CC[C@H]2[C@@H]3CC[C@H]4NC(=O)CC[C@]4(C)[C@H]3CC[C@]2(C)O1 and report it.
Key: > 100 µM

Source of measurements: ChEMBL document CHEMBL3112553
